# TEST PROTOCOL: In-vitro intrinsic dissolution of 200 mg pellets of API without excipients
# Type: physicochemical
# SETTINGS: 180 min; Table 8; 200 mg pellet, 0.01N HCl, 37° C., paddle 75 rpm
# Experimental: A tableting mixture (200 mg) comprising solely salts of (((1-(6-amino-9H-purin-9-yl)propan-2-yloxy)methyl) (phenoxy) phosphoryloxy) methyl pivalate-prepared according to any one of the examples 1 to 10 (i.e. with no excipients) was prepared and compressed to a pellet using an automatic KBR press operating at a compression pressure of 2 tones for 2 minutes. […] Note: Aliquots were analysed on HPLC. […]
Hi, to clarify the labels: 1 covers % release of Compound (I) from the respective Salts from 70% upward, -1 covers anything below 70%.

Ask | Could you please find out whether CC(Cn1cnc2c(N)ncnc21)OCP(=O)(OCOC(=O)C(C)(C)C)Oc1ccccc1.O=P(O)(O)O (stereo not drawn) [Phosphate] has % release of Compound (I) from the respective Salts that meets 70% or exceeds it?
Reply | 1

Ask | Say whether CC(Cn1cnc2c(N)ncnc21)OCP(=O)(OCOC(=O)C(C)(C)C)Oc1ccccc1.O=C(O)C(=O)O (stereo not drawn) [Oxalate] shows % release of Compound (I) from the respective Salts of 70% or more.
Reply | -1

Ask | Answer whether % release of Compound (I) from the respective Salts of CC(Cn1cnc2c(N)ncnc21)OCP(=O)(OCOC(=O)C(C)(C)C)Oc1ccccc1.O=C(O)CC(O)(CC(=O)O)C(=O)O (stereo not drawn) [Citrate] is greater than or equal to 70%.
Reply | -1

Ask | Can CC(Cn1cnc2c(N)ncnc21)OCP(=O)(OCOC(=O)C(C)(C)C)Oc1ccccc1.O=C(O)CCC(=O)O (stereo not drawn) [Succinate] be said to have % release of Compound (I) from the respective Salts at or above 70%?
Reply | 1

Ask | In plain terms: is recorded % release of Compound (I) from the respective Salts at least 70% for CC(Cn1cnc2c(N)ncnc21)OCP(=O)(OCOC(=O)C(C)(C)C)Oc1ccccc1.O=C(O)/C=C/C(=O)O (stereo not drawn) [Fumarate] ?
Reply | -1
